percentage damage caused to the plant, AMARE for assorted compounds
System: Amaranthus retoflexus (AMARE)
experiment_description: Post-emergence test, glasshouse
Type: in vivo
stated_conditions: 250 g/ha, evaluated after 13 days, Table B1
measure_name: percentage damage caused to the plant, AMARE

[[record]]
query_smiles = "FC(F)Oc1ccc(-n2nc(C(F)(F)F)cc2Oc2ncc(Cl)cn2)cc1"
recorded_measurement = "4 (4=61-80%)"

[[record]]
query_smiles = "Cc1cnc(Oc2cc(C(F)(F)F)nn2-c2ccc(C(F)(F)F)cc2)nc1"
recorded_measurement = "5 (5=81-100%)"

[[record]]
query_smiles = "FC(F)(F)c1ccc(-n2nc(C(F)(F)F)cc2Oc2ncc(Cl)cn2)cc1"
recorded_measurement = "5 (5=81-100%)"

[[record]]
query_smiles = "FC(F)(F)c1ccc(-n2nc(C(F)(F)F)cc2Oc2ncc(Br)cn2)cc1"
recorded_measurement = "4 (4=61-80%)"

[[record]]
query_smiles = "FC(F)c1cc(Oc2ncc(Cl)cn2)n(-c2ccc(C(F)(F)F)cc2)n1"
recorded_measurement = "5 (5=81-100%)"

[[record]]
query_smiles = "Cc1ncc(-n2nc(C(F)(F)F)cc2Oc2ncc(Cl)cn2)cn1"
recorded_measurement = "5 (5=81-100%)"

[[record]]
query_smiles = "FC(F)(F)c1cc(Oc2ncc(Cl)cn2)n(-c2cccc(Cl)c2)n1"
recorded_measurement = "5 (5=81-100%)"

[[record]]
query_smiles = "Fc1ccccc1-n1nc(C(F)(F)F)cc1Oc1ncc(Cl)cn1"
recorded_measurement = "3 (3=41-60%)"

[[record]]
query_smiles = "Cc1ccc(-n2nc(C(F)(F)F)cc2Oc2ncc(Cl)cn2)cc1"
recorded_measurement = "4 (4=61-80%)"

